Target: T1, human IL-12Rβ2 (human, UniProt Q99665 24-862)
T1 construct: Expressed on HEK293T cells transiently transfected with a pcDNA3 plasmid (Genscript clone OHu21785); also called hIL-12RB2; IL-12 receptor β2 subunit
T1 sequence: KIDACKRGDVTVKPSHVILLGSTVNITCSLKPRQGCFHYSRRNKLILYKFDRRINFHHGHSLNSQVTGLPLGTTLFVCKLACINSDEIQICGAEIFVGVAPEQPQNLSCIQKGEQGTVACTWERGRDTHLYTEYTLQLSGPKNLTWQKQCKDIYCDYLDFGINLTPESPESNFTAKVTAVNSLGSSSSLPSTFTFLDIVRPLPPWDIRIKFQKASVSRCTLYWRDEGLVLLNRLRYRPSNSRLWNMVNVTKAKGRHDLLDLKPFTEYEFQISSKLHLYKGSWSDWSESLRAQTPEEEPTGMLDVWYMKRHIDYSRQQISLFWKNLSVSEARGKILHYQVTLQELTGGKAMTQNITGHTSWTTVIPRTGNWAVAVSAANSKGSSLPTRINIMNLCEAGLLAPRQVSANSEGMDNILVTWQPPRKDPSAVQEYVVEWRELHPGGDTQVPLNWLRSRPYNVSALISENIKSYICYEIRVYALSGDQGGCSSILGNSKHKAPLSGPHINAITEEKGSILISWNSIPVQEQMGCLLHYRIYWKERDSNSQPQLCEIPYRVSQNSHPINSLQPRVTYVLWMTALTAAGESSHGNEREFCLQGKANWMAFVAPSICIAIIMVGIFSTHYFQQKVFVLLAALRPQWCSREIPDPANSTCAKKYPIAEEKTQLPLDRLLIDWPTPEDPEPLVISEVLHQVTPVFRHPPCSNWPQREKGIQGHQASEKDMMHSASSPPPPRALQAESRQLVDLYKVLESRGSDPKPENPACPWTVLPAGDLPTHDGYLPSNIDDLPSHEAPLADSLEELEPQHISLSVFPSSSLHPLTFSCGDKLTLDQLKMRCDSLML
Test: flow cytometry, P.E. on transfected HEK293T cells
metric: % cells bound (%)
Could you give me the number in %? Just the number is fine.

Would you kindly share the measured % cells bound for anti-IL-12Rβ2 VHH clone 3CAHS41 (VHH, not shown: small tags and cut ends, periplasmic extract) VHH: QVQLQESGGGLVQAGDSLRLSCAASGRTFDTYIVGWFRQAPGKEREFVSALSWSDDTTIRDDSLRGRFTISRDNAKNTVYLLMNSLKPEDTAVYYCAAKAKPPAATWSSYRNREWYDYWGQGTQVTVSS ?
43.3

Would you kindly share the measured % cells bound for anti-IL-12Rβ2 VHH clone 3CAHS39 (VHH, not shown: small tags and cut ends, periplasmic extract) VHH: QVQLQESGGGLVQAGGSLRLSCAASGRTINAYIMGWFRQAPGKEREFVAAVSGSGGSTYYADSVKGRFTISRDNAKNTVNLQMDNLRSEDTDVYYCAATYESVYLQNPGQYDYWGQGTQVTVSS ?
39

Would you kindly share the measured % cells bound for anti-IL-12Rβ2 VHH clone 3CRH14 (VHH, not shown: small tags and cut ends, periplasmic extract) VHH: QVQLQESGGGLVQPGGSLRLSCAASGFTFSTSGMHWFRQAPGKGLEWVSSIGIIVDSSYYADSVKGRFTISRDNAKNTLFLQMNSLKSEDTAVYYCSKDPTGSSRGQGTQVTVSS ?
41.7

Would you kindly share the measured % cells bound for anti-IL-12Rβ2 VHH clone 3CAHS53 (VHH, not shown: small tags and cut ends, periplasmic extract) VHH: QVQLQESGGGLVEPGGSLRLSCAASGRTINAYIMGWFRQAPGKEREFVAAVSGSGGSTYYADSVKGRFTISRDSAKNTVNLQMDNLRSEDTDVYYCAATYESVYLQNPGQYDYWGQGTQVTVSS ?
49.3
